Ref: PubChem BioAssay (NCATS)

experiment-summary: qHTS of pediatric cancer cell lines to identify multiple opportunities for drug repurposing: Primary screen for TC32 cells (AID 1347089); note: potency is the fitted concentration of half-maximal effect; nearly all actives have a fitted effect of over 60% in size
test-settings: TC32 Ewing sarcoma viability, CellTiter-Glo luminescence, 48 h; series mostly up to 45.8 µM
Records with an inconclusive call do not appear. The source made the active and inactive calls. Calls come from the whole dose curve; as a rule, active = well fitted cell-killing curve with a large enough effect; inconclusive = small, poorly fitted or top-dose-only effect; inactive = flat fitted curve, though single readings scatter.
measurement-name: Potency

>  <chemical-string>
Cc1ccc(C(=O)Nc2ccc(CN3CCN(C)CC3)c(C(F)(F)F)c2)cc1C#Cc1cnc2cccnn12

>  <measurement-name>
Potency

>  <result>
14.7 µM (active)

$$$$

Next item in the queue.
*Q* For the compound C[C@@H](Oc1cc(-n2cnc3ccc(CN4CCN(C)CC4)cc32)sc1C(N)=O)c1ccccc1C(F)(F)F , what Potency is on record?
*A* 0.294 µM (active)

----------
Tested on: Zika virus NS2B-NS3 protease
experiment-summary: Primary screen GU AMC qHTS for Zika virus inhibitors (AID 1347154); note: nearly all actives have a fitted effect of over 70% in size
test-settings: Zika NS2B-NS3 unlinked protease, AMC fluorogenic substrate; series mostly up to 54.1 µM
Inconclusive results are not listed. Active and inactive are the calls of the source. Calls follow the shape of the dose curve; as a rule, active = well fitted inhibition curve with a large enough effect; inconclusive = small, poorly fitted or top-dose-only effect; inactive = flat fitted curve, though single readings scatter.
Please answer using one outcome listed in true (1) = active, false (0) = inactive

>  <molecule>
O=c1[nH]c(=O)n(C2CCCO2)cc1F (centres undefined)

>  <measurement-target>
Zika virus NS2B-NS3 protease

>  <qualitative-label>
false (0)

$$$$

*Q* Just curious, what result did C[C@H]1C[C@@H]2[C@@H]([C@@H](O)C[C@@]3(C)[C@H]2CC[C@]3(O)C(=O)CO)[C@@]2(C)C=CC(=O)C=C12 get here?
*A* false (0)

*Q* Write down the call the test reported for this molecule. Item: O=C1CCC[C@@H]2[C@H]3CCC[N+]4([O-])CCC[C@@H](CN12)[C@@H]34 (some centres undefined)
*A* false (0)

*Q* Dear all, I need the recorded test outcome for CCS(=O)(=O)c1cccc(-c2cc(C(=O)NC3CCN(C)CC3)c(C)c3[nH]c4ncc(C)cc4c23)c1 , thank you.
*A* true (1)

*Q* Any idea what this test logged for CCN(CC)CCNC(=O)c1ccc2nc(-c3ccccc3)c(-c3ccc(CN4CCC(n5c(=O)[nH]c6ccccc65)CC4)cc3)nc2c1 ?
*A* false (0)

*Q* Tell me the assay call for O=c1c2ccccc2nc2n1CCc1c-2[nH]c2ccccc12 please.
*A* true (1)

*Q* Dear colleague, could you share the recorded outcome for O=C(c1ccc(Nc2nccc(-c3cc4ccccc4s3)n2)cc1)N1CCC(N2CCCC2)CC1 when you have a moment?
*A* false (0)

*Q* Entry Cc1cc(C(=O)N2CCN(c3cccc(Cl)c3)CC2)n(-c2ccccc2)n1 : call = ?
*A* false (0)

*Q* Each molecule tested received a call. Report the one for CN1c2cc(O)c(N=NC(N)=O)cc2CC1S(=O)(=O)O (centres undefined) .
*A* false (0)

*Q* GET /call?item= CC(=O)OCCN1C(=O)c2c(C)nc3ccc(S(=O)(=O)N4CCOCC4)cc3c2C1=O returns the recorded outcome of this test.
*A* false (0)

*Q* Any idea what this test logged for CCC[C@H](NC(=O)C(C#N)=Cc1cccc(Br)n1)c1ccccc1 ?
*A* false (0)

*Q* Field: outcome | Entry: COc1ccc(F)c(F)c1C(=O)c1cnc(NC2CCN(S(C)(=O)=O)CC2)nc1N
*A* false (0)

*Q* What did this assay record as the result for CC(C)c1cnn2c(NCc3ccccc3)cc(N[C@@H](CO)[C@H](O)CO)nc12 ?
*A* false (0)

*Q* How did this test come out for CC(C)(O)c1cc2nc(-c3cnc(N)nc3)nc(N3CCOCC3)c2s1 ?
*A* false (0)
